All figures here come from patent US8853213B2.

target.under.test: GPR119 (Homo sapiens, UniProt Q8TDV5)
Sequence (Q8TDV5 whole entry): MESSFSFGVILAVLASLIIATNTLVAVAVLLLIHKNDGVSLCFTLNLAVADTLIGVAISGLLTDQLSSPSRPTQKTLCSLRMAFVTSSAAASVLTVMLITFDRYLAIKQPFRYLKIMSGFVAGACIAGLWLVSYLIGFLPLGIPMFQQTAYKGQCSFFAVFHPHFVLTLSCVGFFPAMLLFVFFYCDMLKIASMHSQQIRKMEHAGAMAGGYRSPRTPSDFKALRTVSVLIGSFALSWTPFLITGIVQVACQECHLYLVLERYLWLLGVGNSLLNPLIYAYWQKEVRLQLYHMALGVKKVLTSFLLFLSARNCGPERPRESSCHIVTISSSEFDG
test.name: Controlling Effect of GPR119 in CRE-bla CHO-K1 Cells (EC50)
stated.conditions: GPR119 CRE-bla CHO-K1 cell line, 5 hr incubation with compound, β-lactamase LiveBLAzer-FRET B/G readout; read-out: controlling effect against GPR119 in CRE-bla CHO-K1 cell line (EC50)
pEC50: −log10 of the molar value.
measure: pEC50

CCc1cnc(N2CC[C@H](Oc3ncnc4c(-c5ccc(S(C)(=O)=O)cc5)cn(C)c34)C2)nc1
6.00 to 7.00
CC(C)c1noc(N2CCC(Oc3ncnc4c(-c5ccc(SC(F)(F)F)cc5)csc34)CC2)n1
< 6.00
CC(C)(C)c1noc(C2CCN(c3ncnc4c(-c5ccc(S(C)(=O)=O)cc5F)csc34)CC2)n1
> 7.00
Cn1cc(-c2ccc(-n3cnnn3)cc2)c2ncnc(OC3CCN(c4ncc(C(F)(F)F)cn4)CC3)c21
> 7.00
CS(=O)(=O)c1ccc(-c2csc3c(OC4CCN(c5nc(-c6ccc(F)cc6)no5)CC4)ncnc23)c(F)c1
> 7.00

Answer with the recorded pEC50 for the compound listed here: `CN1CCC(Oc2ncnc3c(-c4ccc(S(C)(=O)=O)cc4F)csc23)CC1`
< 6.00

Note pEC50 for the compound shown: `CC(C)c1noc(C2CCN(c3ncnc4c(-c5ccc(S(C)(=O)=O)cc5F)csc34)CC2)n1`
> 7.00

Specify pEC50 for `CCc1cnc(N2CCC(Oc3ncnc4c(-c5ccc(S(C)(=O)=O)cc5)csc34)CC2)nc1` and stop.
> 7.00

Read off the recorded pEC50 for `CCCS(=O)(=O)c1ccc(-c2csc3c(OC4CCN(c5nc(C(C)C)no5)CC4)ncnc23)c(F)c1`
> 7.00

Please give the documented pEC50 of `CC(C)c1csc(N2CCC(Oc3ncnc4c(-c5ccc(S(C)(=O)=O)cc5F)csc34)CC2)n1`
< 6.00

Return reported pEC50. Input compound: `CC(C)c1noc(N2CCN(c3ncnc4c(-c5ccc(S(C)(=O)=O)cc5)csc34)CC2)n1`
6.00 to 7.00

====

target.under.test: GPR119 (Homo sapiens)
test.name: Controlling Effect of GPR119 in CRE-bla CHO-K1 Cells (EC50)
stated.conditions: GPR119 CRE-bla CHO-K1 cell line, 5 hr incubation with compound, β-lactamase LiveBLAzer-FRET B/G readout; read-out: controlling effect against GPR119 in CRE-bla CHO-K1 cell line (EC50)
Listed here: items and their measured EC50.

CS(=O)(=O)c1ccc(-c2csc3c(N4CCCCC4)ncnc23)cc1
> 1000 nM

Kindly indicate its recorded EC50. Item: `CCc1cnc(N2CCC(Oc3ncnc4c(-c5ccc(S(C)(=O)=O)cc5F)csc34)CC2)nc1`
< 100 nM

Supply EC50 value. Item: `Cn1cc(-c2ccc(S(C)(=O)=O)cc2)c2ncnc(OC3CCN(C(=O)C(C)(C)C)CC3)c21`
100 to 1000 nM

Answer with the recorded EC50 for the compound listed here: `CS(=O)(=O)c1ccc(-c2csc3c(OC4CCN(c5nc(C6CCCCC6)no5)CC4)ncnc23)c(F)c1`
< 100 nM

Identify measured EC50 corresponding to `CC(C)(C)OC(=O)N1CCC(Oc2ncnc3c(-c4ccc(S(C)(=O)=O)cc4F)csc23)CC1`
< 100 nM

For the compound `CC(C)c1noc(N2CCC(Oc3ncnc4c(-c5ccc(S(=O)(=O)C(C)C)cc5)csc34)CC2)n1` , give its reported EC50.
< 100 nM
